- tgt: T1, human CD70, recombinant, N-terminally biotinylated (residues 39-193) (human, UniProt P32970 39-193, N-terminal biotin)
- T1 construct: range 39-193; the same entry is used there; also called biotinylated human CD70; CD70 biotin
- T1 sequence (looked up): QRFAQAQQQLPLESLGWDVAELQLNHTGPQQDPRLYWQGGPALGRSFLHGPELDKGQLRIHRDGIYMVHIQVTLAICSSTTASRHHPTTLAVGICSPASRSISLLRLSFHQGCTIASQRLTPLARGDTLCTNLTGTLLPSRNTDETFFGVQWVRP
- experiment.notes: CD27 blocking ELISA, 3 µM scFv, strep/HRP
outcome.measure: strep/HRP
Give the figure only, with no unit attached.

Answered cases to consult:
14-TC6-I-F03 (scFv, His-tagged) scFv: QVQLVQSGAEVKKPGASVKVSCKASGYTFTGYYMNWVRQAPGQGLEWMAWINPNTGDTNYAQKFQGRVTMTRDTSINTAYIELSRLTSDDTAVYYCARVGDYYDRSGYYRHDAFDIWGQGTMVTVSSGGSGGSGGSGGSSSELTQDPAVSVALGQTVRITCQGDSLRSYYASWYQQKPGQAPVLVIYGKNNRPSGIPDRFSGSNSGNTATLTISGTQAMDEADYYCQAWDSSTVFGGGTKVTVL; 0.954
4-TC4-I-G08 (scFv, His-tagged) scFv: QVQLVQSGGGVVQPGRSLRLSCAASGFTFSSYAMHWVRQAPGKGLEWVAVISYDGSNKYYADSVKGRFTISRDNAKNSLYLQMNSLRDEDTAVYYCARDESFDYGVDVWGKGTTVTVSSGGSGGSGGSGGSSSELTQDPAVSVALGQTVRITCQGDSLRSYYASWYQQKPGQAPVLVIYGKNNRPSGIPDRFSGSSSGNTASLTITGAQAEDEADYYCNSRDSSGNHLVVFGGGTKLTVL; 1.03
32-TC1.2-I-F07-6 (scFv, His-tagged) scFv: QVQLVQSGAEVKKPGESLKISCKGSGYSFTSYWIGWVRQMPGKGLEWMGIIYPGESDTRYSPSFQGQVTISADKSISTAYLQWSSLKASDTAMYYCARRNYYDRSGYVDAFDIWGQGTMVTVSSGGSGGSGGSGGSSSELTQDPAVSVALGQTVRITCQGDSLRRFYASWHQQKPGQAPIVVMYAENNRPSGIPDRFSGSSSGNTASLTITGAQAEDEATYYCNSRDSSGNRHVFGTGTKLTVL; 0.113

Return the recorded strep/HRP value; entry: 13-TC7-I-E11 (scFv, His-tagged) scFv: QVQLQQWGAGLLKPSETLSLTCAVYGGSFSGYYWSWIRQPPGKGLEWIGEINHSGSTNYNPSLKSRVTISVDTSKNQFSLKLSSVTAADTAVYYCARSRRPYWYFDLWGRGTLVTVSSGGSGGSGGSGGSQSVLTQPPSVSGAPGQRVTISCTGSSSNIGAGYDVHWYQQLPGTAPKLLIYGDSNRPSGVPDRFSGSGSGTSASLAITGLQAEDEGDYYCQSFDSNLSRYVFGAGTKLTVL
1.42

Return the recorded strep/HRP value; entry: 40-TC7-VI-F11 (scFv, His-tagged) scFv: EVQLVESGGGVVQPGRSLRLSCAASGFTFSSYAMHWVRQAPGKGLEWVAVISYDGSNKYYADSVKGRFTISRDNSKNTLYLQMNSLRAEDTAVYYCARDGYGFDYWGQGTLVTVSSGGSGGSGGSGGSSYELTQSPSVSVAPGQTARITCGGNNIGSKSVHWYQQKPGQAPVLVVYDDSDRPSGIPERFSGSNSGNTATLTISRVEAGDEADYYCQVWDSSTPYVFGTGTKLTVL
1.37
